- System: EKVX
- METHOD_NOTES: NCI tumour cell line growth inhibition, 48 h
Activity calls are given as the source filed them. Rule as the data show it: active = GI50 up to about 1.1 µM and inactive = higher.
Reported GI50 values are given for each entry in this list.
MEASUREMENT_KIND: GI50

MOLECULE	MEASUREMENT_KIND	REPORTED_RESULT
C[C@@H](N[C@H]1CCC[C@@H]1O)c1ccccc1.C[C@@H](N[C@H]1CCC[C@H]1O)c1ccccc1	GI50	> 100 µM (inactive)
Nc1nc(Cl)cc(NCC2(O)CC(CO)C2)n1 (centres undefined)	GI50	> 100 µM (inactive)
C/C=C/C(=O)Oc1cccc2cccnc12	GI50	6.85 µM (inactive)
CN1C(=O)C2C3C=C4c5ccccc5N(c5ccccc5)C4(C2C1=O)[C@H]1C(=O)N(C)C(=O)[C@@H]31 (some centres undefined)	GI50	> 100 µM (inactive)
CCCCCCCCCCCCNC(=O)CCC(NC(=O)c1ccc(N(C)Cc2cnc3nc(N)nc(N)c3n2)cc1)C(=O)NCCCCCCCCCCCC (centres undefined)	GI50	> 100 µM (inactive)
CN(C)C(=S)/N=c1\ss/c(=N\S(=O)(=O)c2ccccc2)n1C	GI50	> 100 µM (inactive)
COc1cc([C@@H]2c3cc4c(cc3[C@@H](/N=C/c3ccc(C(=O)O[C@@H](C(=O)O[C@H]5C[C@@]6(O)[C@@H](OC(=O)c7ccccc7)[C@@H]7[C@]8(OC(C)=O)CO[C@@H]8C[C@H](O)[C@@]7(C)C(=O)[C@H](OC(C)=O)C(=C5C)C6(C)C)[C@@H](NC(=O)c5ccccc5)c5ccccc5)cc3)[C@H]3COC(=O)[C@H]23)OCO4)cc(OC)c1O	GI50	5.93 µM (inactive)
[C-]#[N+][C@@H]1C2[C@H](CC[C@@]1(C)O)C(=C)CC[C@@H]2[C@@]1(C)CC[C@H](Cl)C(C)(C)O1 (some centres undefined)	GI50	7.14 µM (inactive)
C=C1OC2OC(C)C(NC(=O)OCC(Cl)(Cl)Cl)C(OC(C)=O)C2O1 (centres undefined)	GI50	> 100 µM (inactive)
CCOC(=O)c1ccc2c(=O)n3c(C(=O)OCC)ccc3c(=O)n12	GI50	> 100 µM (inactive)
Cc1cccc2c1Oc1ccccc1C2NC(=O)c1ccc([N+](=O)[O-])cc1 (centres undefined)	GI50	> 100 µM (inactive)
CCC(C(=O)C(=O)C(CC)P1(=O)OC(C)(C)CN1C(C)(C)C)P1(=O)OC(C)(C)CN1C(C)(C)C (centres undefined)	GI50	> 100 µM (inactive)
CCOC(=O)Cc1nn2c(=O)cc(C)nc2s1	GI50	> 100 µM (inactive)
CN(C)CCNc1ccc(NCCN(C)C)c2c1C(=O)c1ncsc1C2=O	GI50	12.3 µM (inactive)
COC1OC(CO)C(O)C(NC(=O)N(C)N=O)C1O (centres undefined)	GI50	> 100 µM (inactive)
Cc1sc2nc3n(c(=O)c2c1C)N=CN(c1ccc(F)cc1)C3	GI50	> 100 µM (inactive)
Cc1ccc(SC(=O)N2C(=S)N=C(NC3CCCCC3)C23CCCCC3)cc1	GI50	> 100 µM (inactive)
Cc1cn2c(/C=C3/C(=O)Nc4cccc(Cl)c43)c(Cl)nc2s1	GI50	55.8 µM (inactive)
CN(C)/C=N\c1cccc2cnccc12	GI50	> 100 µM (inactive)
Cc1ccc(S(=O)(=O)NC(=O)NCc2ccc(S(N)(=O)=O)cc2)cc1	GI50	> 100 µM (inactive)
CCn1c(SCc2nnc(Nc3ccccc3)s2)nc2ccccc2c1=O	GI50	3.56 µM (inactive)
O=C(O)CNc1c2ccccc2[n+]([O-])c2ccccc12	GI50	> 100 µM (inactive)
O=C1Nc2ccccc2C1Cc1ccc([N+](=O)[O-])cc1 (centres undefined)	GI50	> 100 µM (inactive)
CC(=O)NC(CC(C)C)C(=O)NC(CC(C)C)C(=O)NC(C=O)CCCNC(=N)N (centres undefined)	GI50	> 100 µM (inactive)
CC1=C(C(=O)Nc2ccccc2C)C(c2ccc(C3C(C(=O)Nc4ccccc4C)=C(C)NC(C)=C3C(=O)Nc3ccccc3C)cc2)C(C(=O)Nc2ccccc2C)=C(C)N1	GI50	7.31 µM (inactive)
CC1(C)C(CCO)CC1n1ccc(=O)[nH]c1=O (centres undefined)	GI50	> 100 µM (inactive)
O=C(O)C12C3C4(C(=O)O)C1C1(C(=O)O)C2C3(C(=O)O)C41 (centres undefined)	GI50	> 100 µM (inactive)
O=C1CC2(CCC3=C(O2)c2ccccc2NC(=O)C3)C(=O)c2ccccc2N1 (centres undefined)	GI50	> 100 µM (inactive)
N#CC1(O)CCCCCCCCCCC1	GI50	> 100 µM (inactive)
COc1cc2oc(=O)cc(C)c2cc1[N+](=O)[O-]	GI50	> 59.4 µM (inactive)
Brc1ccc(-c2cc(-c3ccc4c(c3)OCO4)c(-c3cccs3)n2Cc2ccccc2)cc1	GI50	> 100 µM (inactive)
CC(N)Cc1ccc(C(=O)Cl)cc1 (centres undefined)	GI50	> 100 µM (inactive)
Cc1cn(CC2=NC3CCCCC3N2)c(=O)[nH]c1=O (centres undefined)	GI50	> 100 µM (inactive)
NNC(=S)N/N=C(\CCCC(=O)NCCc1ccccc1)CC(=O)c1ccccc1	GI50	> 100 µM (inactive)
O=P(Nc1ccccc1)(Oc1ccccc1)N(CCCl)CCCl (centres undefined)	GI50	> 100 µM (inactive)
SC[C@@H]1COC[C@H](CS)S1	GI50	> 100 µM (inactive)
COc1cc(S(=O)(=O)Nc2ccc(-c3csc(N4C(=O)CSC4c4ccccc4)n3)cc2)ccc1Cl (centres undefined)	GI50	20.6 µM (inactive)
CCc1ccccc1N1C(=O)C(=O)C(c2nc3ccccc3s2)C(=O)C1=O	GI50	> 100 µM (inactive)
C=C1C(=O)OC2/C=C(\C)C(O)CC(O)C(C)(O)CC(OC(=O)/C(C)=C/C)C12 (centres undefined)	GI50	43.1 µM (inactive)
